# system: GST-Rok-C97-191 (Bacillus subtilis subsp. subtilis str. …, UniProt O34857 97-191)
# Sequence: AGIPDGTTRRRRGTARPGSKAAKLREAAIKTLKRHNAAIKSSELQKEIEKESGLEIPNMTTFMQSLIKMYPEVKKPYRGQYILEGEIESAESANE
# method_description: protein binding microarray; high values mean tight binding
# assay_context: protein: recombinant; tags: GST (pTH5325, pDEST15-Magic modified); dsDNA, one strand shown
Whole data set: some 33,000 sequences, median “e-score” near -0.038, cut for the highest 2% near 0.33. This excerpt belongs to a sample that is enriched for the highest values.
observable: binding signal (E-score)
Numbers only, in E-score.

Sample answers from the record:
{"biopolymer_sequence": "GAAACTAA", "system": "GST-Rok-C97-191 (Bacillus subtilis subsp. subtilis str. …, UniProt O34857 97-191)", "observable": "binding signal", "numeric_readout": 0.313}
{"biopolymer_sequence": "CAAACTAC", "system": "GST-Rok-C97-191 (Bacillus subtilis subsp. subtilis str. …, UniProt O34857 97-191)", "observable": "binding signal", "numeric_readout": 0.446}
{"biopolymer_sequence": "ACAAACTG", "system": "GST-Rok-C97-191 (Bacillus subtilis subsp. subtilis str. …, UniProt O34857 97-191)", "observable": "binding signal", "numeric_readout": 0.0787}

List the reported binding signal of each sequence below.
1. ATTCTACA
2. ACTTAAGA
3. CTTCTACC
4. CGGATACC
5. ACTCTACC

RESULT:
1. 0.382
2. -0.12
3. 0.348
4. 0.0204
5. -0.0607

====

# system: GST-Rok-C97-191 (Bacillus subtilis subsp. subtilis str. …, UniProt O34857 97-191)
# Sequence: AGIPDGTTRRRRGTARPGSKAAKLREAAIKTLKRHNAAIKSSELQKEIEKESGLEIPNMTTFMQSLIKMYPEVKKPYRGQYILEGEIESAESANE
# method_description: protein binding microarray; high values mean tight binding
# assay_context: protein: recombinant; tags: GST (pTH5325, pDEST15-Magic modified); dsDNA, one strand shown
The full ranking holds about 33,000 sequences; the median of “e-score” is about -0.038, and the highest 2% start at about 0.33. The sample as a whole holds a higher share of the highest values than the screen did.
observable: binding signal (E-score)
Give bare numbers, in E-score.

# example entries with known answers
{"biopolymer_sequence": "GTGAGATA", "binding signal [E-score]": 0.0844}
{"biopolymer_sequence": "AAGTACAC", "binding signal [E-score]": 0.275}
{"biopolymer_sequence": "CAGTACTA", "binding signal [E-score]": 0.264}
{"biopolymer_sequence": "GGAAACCA", "binding signal [E-score]": -0.105}
{"biopolymer_sequence": "AAGTACTC", "binding signal [E-score]": 0.146}
{"biopolymer_sequence": "AAGTACAA", "binding signal [E-score]": 0.349}

QUERY: Form field: binding signal recorded for "AGAAACTA" with GST-Rok-C97-191 (Bacillus subtilis subsp. subtilis str. …, UniProt O34857 97-191) (enter value)
RESULT: 0.377

====

# system: GST-Rok-C97-191 (Bacillus subtilis subsp. subtilis str. …, UniProt O34857 97-191)
# Sequence: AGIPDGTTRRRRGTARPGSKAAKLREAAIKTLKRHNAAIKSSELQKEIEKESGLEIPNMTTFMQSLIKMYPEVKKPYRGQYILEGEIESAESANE
# method_description: protein binding microarray; Rok is a gene silencer of Bacillus subtilis; high values mean tight binding
# assay_context: protein: recombinant; tags: GST (pTH5325, pDEST15-Magic modified); dsDNA, one strand shown
In all, about 33,000 sequences were measured (“e-score”: median about -0.038, highest 2% from about 0.33 on). Many of the other results were omitted from the sample, so the highest values are more common in it than they were.
observable: binding signal (E-score)
One number for each entry, in E-score.

Worked examples follow.
{"biopolymer_sequence": "AGCATAAG", "binding signal (E-score)": -0.133}
{"biopolymer_sequence": "CAGTTTCA", "binding signal (E-score)": -0.125}
{"biopolymer_sequence": "AGTAGTGA", "binding signal (E-score)": 0.121}
{"biopolymer_sequence": "ATTATTCA", "binding signal (E-score)": 0.199}
{"biopolymer_sequence": "ACGAACTA", "binding signal (E-score)": 0.311}
{"biopolymer_sequence": "TATAGTAA", "binding signal (E-score)": 0.346}

Your task in this section: give binding signal for each listed record.
1. CTAGTACA
2. CTGGAACC
3. GCGGGAGA

RESULT:
1. 0.265
2. -0.0259
3. -0.111

Quick one: give me binding signal for each item below, same order please.
1. ACCAGGAC
2. AGCCAATG
3. ATAGTAAC
4. CGATCAAG

RESULT:
-0.0513
-0.162
0.28
-0.0651

Field: binding signal. Fill in for each record below.
1. AGCATAAT
2. ATAGTAAG
3. AACTACGA
4. GGAATCGA

RESULT:
[0.369, 0.278, 0.283, 0.209]
